- target: rat 5-HT2B receptor (Rattus norvegicus)
- assay_method_text: biochemical
- Format: binding
- particulars: Ki Rat 5-HT2B, [3H]Serotonin; 5-HT2B cells; AVG
pKi: −log10 of the molar value.
In this section we review reported pKi values for a set of molecules.
measured_metric: pKi

[[record]]
molecule = "CN1CC(C(=O)N[C@H]2CC[C@H](O)CC2)CC2c3cccc4[nH]cc(c34)CC21 (some centres unmarked)"
measured_metric = "pKi"
recorded_value = 7.35

[[record]]
molecule = "CC(N)Cc1c[nH]c2ccc(F)cc12 (centres unmarked)"
measured_metric = "pKi"
recorded_value = 8.19

[[record]]
molecule = "NCCc1c[nH]c2c(Br)cccc12"
measured_metric = "pKi"
recorded_value = 7.49

[[record]]
molecule = "NCCc1c[nH]c2c(O)cc(O)cc12"
measured_metric = "pKi"
recorded_value = 5.34

[[record]]
molecule = "CC(C)n1cc2c3c(cccc31)C1CC(C(=O)N[C@H]3CC[C@H](O)CC3)CN(C)C1C2 (some centres unmarked)"
measured_metric = "pKi"
recorded_value = 7.51

[[record]]
molecule = "Fc1cccc2c3c([nH]c12)CNCC3"
measured_metric = "pKi"
recorded_value = 7.59

[[record]]
molecule = "CCCN(CCC)CCc1c[nH]c2ccc(O)cc12"
measured_metric = "pKi"
recorded_value = 7.21

[[record]]
molecule = "COc1ccc2cccc(N3CCNCC3)c2c1"
measured_metric = "pKi"
recorded_value = 8.45

[[record]]
molecule = "Cc1c(Br)ccc2c(CCN)c[nH]c12"
measured_metric = "pKi"
recorded_value = 7.68

[[record]]
molecule = "CN1CC(C(=O)NCCc2ccccn2)CC2c3cccc4c3c(cn4C)CC21 (centres unmarked)"
measured_metric = "pKi"
recorded_value = 7.61

[[record]]
molecule = "CC(C)n1cc2c3c(cccc31)C1CC(C(=O)N[C@H]3CC[C@@H](O)CC3)CN(C)C1C2 (some centres unmarked)"
measured_metric = "pKi"
recorded_value = 7.65

[[record]]
molecule = "COC(=O)c1ccc2[nH]cc(CCN)c2c1"
measured_metric = "pKi"
recorded_value = 7.31

[[record]]
molecule = "CCCNCCc1c[nH]c2ccc(Br)cc12"
measured_metric = "pKi"
recorded_value = 6.88

[[record]]
molecule = "CC(C)n1cc2c3c(cccc31)C1CC(C(=O)NCCN3CCN(c4ccccc4)CC3)CN(C)C1C2 (centres unmarked)"
measured_metric = "pKi"
recorded_value = 7.93

[[record]]
molecule = "Cc1ccc2c(CCN)c[nH]c2c1"
measured_metric = "pKi"
recorded_value = 6.99

[[record]]
molecule = "NCCc1c[nH]c2cc(F)ccc12"
measured_metric = "pKi"
recorded_value = 7.39

[[record]]
molecule = "CCCN(CCC)CCc1c[nH]c2ccc(OC)cc12"
measured_metric = "pKi"
recorded_value = 6.77


* * *

- target: 5-HT2A receptor (rat jugular vein) (Rattus norvegicus, UniProt P14842)
- Construct: rat jugular vein which is mediated by 5-HT2A receptors; from tissue; host or cells: rat jugular vein
- Sequence (P14842 whole entry): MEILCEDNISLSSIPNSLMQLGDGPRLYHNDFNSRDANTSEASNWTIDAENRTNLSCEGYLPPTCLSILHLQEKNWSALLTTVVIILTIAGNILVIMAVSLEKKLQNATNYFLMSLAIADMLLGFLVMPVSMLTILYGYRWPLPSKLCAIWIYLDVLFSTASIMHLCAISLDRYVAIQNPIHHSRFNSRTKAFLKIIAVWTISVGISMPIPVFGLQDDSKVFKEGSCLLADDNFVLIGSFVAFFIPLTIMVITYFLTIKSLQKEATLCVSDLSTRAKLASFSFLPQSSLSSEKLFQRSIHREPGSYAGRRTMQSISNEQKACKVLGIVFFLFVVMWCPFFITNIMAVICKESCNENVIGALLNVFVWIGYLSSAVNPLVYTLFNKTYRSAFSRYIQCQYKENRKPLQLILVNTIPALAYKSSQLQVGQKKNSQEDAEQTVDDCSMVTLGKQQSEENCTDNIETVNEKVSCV
- assay_method_text: Antagonism of serotonin response in rat jugular vein (apparent antagonist dissociation constant)
- particulars: vs serotonin, ± standard error, read-out: 5-HT2A (Jugular) -log KB (converted)
Counter-ions that a name gives are not always drawn.
measured_metric: Kb (µM)

[[record]]
molecule = "CCCOc1ccc(CC2NCCc3c2[nH]c2ccc(C)cc32)cc1OC (stereo not shown)"
units = "µM"
recorded_value = 0.0513

[[record]]
molecule = "Cc1ccc2[nH]c3c(c2c1)CCNC3Cc1cccc2ccccc12 (racemic) [Example 51, hydrochloride]"
units = "µM"
recorded_value = 0.00851

[[record]]
molecule = "COc1ccc(CC2NCCc3c2[nH]c2ccc(C)cc32)c(Cl)c1OC (stereo not shown) [Example 36, hydrochloride]"
units = "µM"
recorded_value = 0.00724

[[record]]
molecule = "COc1ccc(C(C)C2NCCc3c2[nH]c2cc(C)c(C)cc32)cc1OC (racemic)"
units = "µM"
recorded_value = 0.0115

[[record]]
molecule = "COc1ccc(CC2NCCc3c2[nH]c2cc(C)c(C)cc32)cc1OC (stereo not shown)"
units = "µM"
recorded_value = 0.00708

[[record]]
molecule = "CCc1ccc2[nH]c3c(c2c1)CCNC3Cc1ccc(OC)c(OC)c1 (stereo not shown)"
units = "µM"
recorded_value = 0.0219

[[record]]
molecule = "COc1ccc(CC2NCCc3c2[nH]c2ccc(C)cc32)cc1OC (stereo not shown) [Example 20, hydrochloride]"
units = "µM"
recorded_value = 0.0617


* * *

- target: rat 5-HT2B receptor (Rattus norvegicus, UniProt P30994)
- Sequence (P30994 whole entry): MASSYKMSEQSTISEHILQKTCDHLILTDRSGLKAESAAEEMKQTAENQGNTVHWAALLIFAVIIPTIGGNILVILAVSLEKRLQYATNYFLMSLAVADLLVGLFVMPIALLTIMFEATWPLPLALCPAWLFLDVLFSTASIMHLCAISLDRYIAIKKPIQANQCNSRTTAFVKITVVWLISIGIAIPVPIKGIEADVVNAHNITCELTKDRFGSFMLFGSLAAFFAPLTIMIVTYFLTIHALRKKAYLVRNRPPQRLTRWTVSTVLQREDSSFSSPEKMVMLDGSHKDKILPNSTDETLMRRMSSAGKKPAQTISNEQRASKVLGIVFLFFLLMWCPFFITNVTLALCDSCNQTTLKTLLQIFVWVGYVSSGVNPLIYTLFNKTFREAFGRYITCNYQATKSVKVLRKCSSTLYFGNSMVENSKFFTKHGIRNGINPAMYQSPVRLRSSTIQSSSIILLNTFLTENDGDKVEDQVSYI
- assay_method_text: biochemical
- Format: binding
- particulars: [3H]Serotonin; 5-HT2B cells; AVG; read-out: Ki Rat 5-HT2B
Binning rule for recorded Ki: lo (below 8 nM), mid (8 nM to below 300 nM), hi (300 nM or more)

[[record]]
compound = "c1ccc(COc2cccc3c4c([nH]c23)CNCC4)cc1"
label_class = "hi"

[[record]]
compound = "NCCc1c[nH]c2ccc(C(N)=O)cc12"
label_class = "mid"

[[record]]
compound = "COc1ccc(C(C)(C)C2NCCc3c2[nH]c2ccccc32)cc1OC (stereo not drawn)"
label_class = "mid"

[[record]]
compound = "Cc1ccc2c3c([nH]c2c1)CNCC3"
label_class = "mid"

[[record]]
compound = "COc1cc(CC2NCCc3c2[nH]c2ccc(C)cc32)cc(I)c1OC (stereo not drawn) [drawing 153]"
label_class = "lo"

[[record]]
compound = "Cc1ccc2[nH]c3c(c2c1)CCNC3Cc1ccc(N(C)C)c2ccccc12 (stereo not drawn)"
label_class = "lo"

[[record]]
compound = "Cc1ccc2[nH]c3c(c2c1)CCNC3C(C)c1cccc2ccccc12 (stereo not drawn)"
label_class = "lo"

[[record]]
compound = "Cc1[nH]c2ccc(O)cc2c1CCN"
label_class = "mid"

[[record]]
compound = "COc1ccc(CC2NCCc3c2[nH]c2c(Cl)c(C)ccc32)cc1OC (stereo not drawn)"
label_class = "lo"

[[record]]
compound = "CCCCC(=O)c1cccc2c1CC(NC)CC2 (stereo not drawn)"
label_class = "hi"

[[record]]
compound = "CCCc1ccc2[nH]c3c(c2c1)CCNC3Cc1ccc(OC)c(OC)c1 (stereo not drawn)"
label_class = "mid"

[[record]]
compound = "Cc1ccc2[nH]c3c(c2c1)CCNC3Cc1cccc2ccccc12 (stereo not drawn)"
label_class = "lo"

[[record]]
compound = "Cc1cccc2c3c([nH]c12)CNCC3"
label_class = "mid"

[[record]]
compound = "NCCc1c[nH]c2ccccc12"
label_class = "mid"

[[record]]
compound = "COc1ccc(C(C)C2NCCc3c2[nH]c2ccc(C)cc32)cc1OC (single isomer, unassigned)"
label_class = "mid"

[[record]]
compound = "CC(C)n1cc(CCN)c2cc(Br)ccc21"
label_class = "hi"

[[record]]
compound = "Cc1ccc2[nH]c3c(c2c1F)CCNC3Cc1cccc2ccccc12 (stereo not drawn)"
label_class = "lo"

[[record]]
compound = "CC(C)(C)c1ccc2[nH]c3c(c2c1)CCNC3Cc1cccc2ccccc12 (stereo not drawn)"
label_class = "mid"

[[record]]
compound = "CCCC(=O)c1cccc2c1CC(NC)CC2 (stereo not drawn)"
label_class = "hi"

[[record]]
compound = "CC(O)C(C)OC(=O)C1CC2c3cccc4c3c(cn4C(C)C)CC2N(C)C1 (stereo not drawn)"
label_class = "lo"

[[record]]
compound = "CCCCC(=O)c1cccc2c1CC(N(C)C)CC2 (stereo not drawn)"
label_class = "hi"

[[record]]
compound = "CN(C)C1CCc2cccc(C(=O)c3ccccc3)c2C1 (stereo not drawn)"
label_class = "hi"

[[record]]
compound = "CN(C)C1CCc2cccc(C(=O)c3ccccc3F)c2C1 (stereo not drawn)"
label_class = "hi"


* * *

- target: rat 5-HT2B receptor (Rattus norvegicus, UniProt P30994);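 also: displacement of [3H]5-HT from membranes of suspension cells carrying cloned rat 5-HT2B receptor, incubated 15 min at 37 °C or 2 h at 0 °C, filter-bound radioactivity counted by scintillation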
- assay_method_text: biochemical
- Type: binding
- particulars: Ki Rat 5-HT2B, [3H]Serotonin; 5-HT2B cells; AVG
pKi: −log10 of the molar value.
measured_metric: pKi

[[record]]
compound = "NCCc1c[nH]c2ccc(OCc3ccccc3)cc12"
recorded_value = 7.52

[[record]]
compound = "CC(C)n1cc2c3c(cccc31)C1CC(C(=O)NC3CCCCC3O)CN(C)C1C2 (stereo not drawn) [drawing 85]"
recorded_value = 7.94

[[record]]
compound = "NCCc1c[nH]c2cc(O)c(O)cc12"
recorded_value = 7.38

[[record]]
compound = "CC(C)n1cc2c3c(cccc31)C1CC(C(=O)NC3CCCCC3O)CN(C)C1C2 (stereo not drawn) [drawing 87]"
recorded_value = 8.03

[[record]]
compound = "CC(C)n1cc2c3c(cccc31)C1CC(C(=O)NC3CCCCC3)CN(C)C1C2 (stereo not drawn)"
recorded_value = 7.82

[[record]]
compound = "CC(C)n1cc2c3c(cccc31)C1CC(C(=O)NC3CCCCC3O)CN(C)C1C2 (stereo not drawn) [drawing 86]"
recorded_value = 8.06

[[record]]
compound = "CC(C)n1cc2c3c(cccc31)C1CC(C(=O)NC3CCCCC3O)CN(C)C1C2 (stereo not drawn) [drawing 84]"
recorded_value = 7.99

[[record]]
compound = "COc1ccc2[nH]c3c(c2c1)CCNC3"
recorded_value = 6.39

[[record]]
compound = "CN(C)CCc1c[nH]c2ccc(OCc3ccccc3)cc12"
recorded_value = 7.41

[[record]]
compound = "CC(N)Cc1c[nH]c2cc(F)ccc12 (stereo not drawn)"
recorded_value = 7.30

[[record]]
compound = "c1ccc2c3c([nH]c2c1)CNCC3"
recorded_value = 6.42

[[record]]
compound = "NCCc1c[nH]c2c(F)cc(F)cc12"
recorded_value = 7.81

[[record]]
compound = "CN1CC(C(=O)NCc2cccnc2)CC2c3cccc4[nH]cc(c34)CC21 (stereo not drawn)"
recorded_value = 7.45

[[record]]
compound = "NCCc1c[nH]c2c(F)cccc12"
recorded_value = 7.20

[[record]]
compound = "CN1CC(C(=O)NC2CCCCC2)CC2c3cccc4[nH]cc(c34)CC21 (stereo not drawn)"
recorded_value = 7.72

[[record]]
compound = "CN1CC(C(=O)NCc2cccnc2)CC2c3cccc4c3c(cn4C)CC21 (stereo not drawn)"
recorded_value = 7.81

[[record]]
compound = "CCC(CO)NC(=O)C1C=C2c3cccc4c3c(cn4C)CC2N(C)C1 (stereo not drawn)"
recorded_value = 8.20

[[record]]
compound = "Cc1ccc2c(CCN)c[nH]c2c1Br"
recorded_value = 7.95

[[record]]
compound = "Clc1ccc2[nH]c3c(c2c1)CCNC3 [drawing 166]"
recorded_value = 7.15

[[record]]
compound = "Cc1ccc2c(CCN)c[nH]c2c1Cl"
recorded_value = 8.10

[[record]]
compound = "NCCc1c[nH]c2c(F)ccc(F)c12"
recorded_value = 6.47

[[record]]
compound = "Cc1cc(Br)c2[nH]cc(CCN)c2c1"
recorded_value = 7.43

[[record]]
compound = "Brc1ccc2[nH]c3c(c2c1)CCNC3 [drawing 170]"
recorded_value = 7.21

[[record]]
compound = "CCN(C)CCc1c[nH]c2ccc(OCc3ccccc3)cc12"
recorded_value = 7.07

